# target-system: UniProt P50053
# method: KHK enzyme activity assay, human KHK-C (F1P production, RapidFire MS)
# Type: biochemical
# measurement-context: fructose 250 μM, ATP 150 μM; average ± SEM; read-out: hKHK-C IC50
pIC50: −log10 of the molar value.
reported-property: pIC50

See these solved cases before continuing.
[[record]]
compound = "C[C@H]1CCN1c1nc(-c2cnn(C3CNC3)c2)cc(C(F)(F)F)c1C#N [Example 17]"
reported_property = "pIC50"
readout_value = 7.79

[[record]]
compound = "C[C@H]1CCN1c1nc(-c2cnn(CCO)c2)cc(C(F)(F)F)c1C#N [Example 11]"
reported_property = "pIC50"
readout_value = 8.10

[[record]]
compound = "C[C@H]1CCN1c1nc(-c2cnn(CC(=O)NCCO)c2)cc(C(F)(F)F)c1C#N [Example 5]"
reported_property = "pIC50"
readout_value = 7.24

[[record]]
compound = "C[C@H]1CCN1c1nc(-c2cnn(CC(O)CO)c2)cc(C(F)(F)F)c1C#N (single isomer, unassigned; isomer 2) [Example 24b]"
reported_property = "pIC50"
readout_value = 8.31

[[record]]
compound = "C[C@H]1CCN1c1nc(-c2cnn(CC(=O)N3C[C@@H](O)[C@H](O)C3)c2)cc(C(F)(F)F)c1C#N [Example 22]"
reported_property = "pIC50"
readout_value = 7.21


P. OC[C@H]1CCN1c1nc(-c2cnn(C3CCNCC3)c2)cc(C(F)(F)F)n1 [Example 2]
Q. C[C@H]1[C@H](O)CN1c1nc(-c2cnn(C3CNC3)c2)cc(C(F)(F)F)n1 [Example 4]
R. OC[C@H]1CCN1c1nc(-c2cnn([C@@H]3CCNC3)c2)cc(C(F)(F)F)n1 [Example 16]
Sort low-to-high on pIC50, please. Response format: the labels, sorted as the prompt asks.
P, R, Q

###

# target-system: human KHK-C (Homo sapiens (Human))
# Sequence (P50053 whole entry): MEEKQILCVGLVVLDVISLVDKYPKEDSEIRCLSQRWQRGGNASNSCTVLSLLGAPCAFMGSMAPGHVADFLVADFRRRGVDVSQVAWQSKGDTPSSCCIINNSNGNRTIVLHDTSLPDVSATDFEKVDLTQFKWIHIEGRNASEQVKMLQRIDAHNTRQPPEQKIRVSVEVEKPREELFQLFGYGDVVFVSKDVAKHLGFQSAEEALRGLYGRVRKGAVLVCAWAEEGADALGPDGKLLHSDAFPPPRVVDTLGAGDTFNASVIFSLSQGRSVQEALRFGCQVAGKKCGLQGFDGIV
# method: KHK enzyme activity assay, human KHK-C (F1P production, RapidFire MS)
# Type: biochemical
# measurement-context: fructose 250 μM, ATP 150 μM; average ± SEM; read-out: hKHK-C IC50
reported-property: IC50 (nM)

[[record]]
molecule = "C[C@H]1CCN1c1nc(-c2cnn(CC(=O)N3CCN(C)CC3)c2)cc(C(F)(F)F)c1C#N"
reported_property = "IC50"
readout_value = 150

[[record]]
molecule = "C[C@H]1CCN1c1nc(-c2cnn(C3CCNCC3O)c2)cc(C(F)(F)F)c1C#N (stereo partly drawn)"
reported_property = "IC50"
readout_value = 9.21

[[record]]
molecule = "C[C@H]1CCN1c1nc(-c2cnn(CC(O)CO)c2)cc(C(F)(F)F)c1C#N (single isomer, unassigned; isomer 1) [Example 24a]"
reported_property = "IC50"
readout_value = 6.06

[[record]]
molecule = "C[C@H]1CCN1c1nc(-c2cn[nH]c2)cc(C(F)(F)F)c1C#N"
reported_property = "IC50"
readout_value = 13.6


1. C[C@H]1CCN1c1nc(-c2cnn(CC(=O)N(CCO)CCO)c2)cc(C(F)(F)F)c1C#N
2. C[C@H]1CCN1c1nc(-c2cnn(C3CCOCC3)c2)cc(C(F)(F)F)c1C#N
Thinking about recorded IC50 values, which is higher, 1 or 2 ? Lab note: record the label of whichever item you select.
1
(1: 55.2 nM, 2: 28.4 nM)
